Hello, the source for this data is patent US20240043434A1, in case you need it.

Experiment: Aqueous solubility determination of upadacitinib cocrystals
Type: physicochemical
Details: aqueous solubility in water at 37° C., equilibrated by end-over-end tumbling for up to 24 hours
Catalogue of compounds with associated Solubility

{"Compound": "CC(=O)Nc1ccc(C(=O)O)cc1.CC[C@@H]1CN(C(=O)NCC(F)(F)F)C[C@@H]1c1cnc2cnc3[nH]ccc3n12", "Value unit": "µg/mL", "Solubility": 2530}
{"Compound": "CC[C@@H]1CN(C(=O)NCC(F)(F)F)C[C@@H]1c1cnc2cnc3[nH]ccc3n12.O=C(O)c1ccc(O)cc1 [4-hydroxybenzoic acid cocrystal]", "Value unit": "µg/mL", "Solubility": 4290}
{"Compound": "CCC1CN(C(=O)NCC(F)(F)F)CC1c1cnc2cnc3[nH]ccc3n12.O=C(O)c1cc(O)c(O)c(O)c1 (centres unmarked)", "Value unit": "µg/mL", "Solubility": 5130}
{"Compound": "CC[C@@H]1CN(C(=O)NCC(F)(F)F)C[C@@H]1c1cnc2cnc3[nH]ccc3n12.O=C(O)c1ccc(O)c(O)c1 [3,4-dihydroxybenzoic acid cocrystal]", "Value unit": "µg/mL", "Solubility": 11300}
{"Compound": "CC[C@@H]1CN(C(=O)NCC(F)(F)F)C[C@@H]1c1cnc2cnc3[nH]ccc3n12.O=C(O)c1ccc(O)c([N+](=O)[O-])c1 [4-hydroxy-3-nitrobenzoic acid cocrystal]", "Value unit": "µg/mL", "Solubility": 1470}
